System: Yap1 mRNA
assay.procedure: Dose-dependent inhibition of human Yap1 in A-431 cells (Example 7, 10,000 cells per well, RTS36584)
Format: cell-based
condition.label: 4000.00 nM, A-431 cells, 10,000 cells per well, free uptake, approximately 48 hours
Strand notation (5' to 3'): a small letter for the sugar, then the base; units joined by * are phosphorothioate-linked, units joined directly phosphodiester-linked; [ ] holds rarer units or linkages, { } end groups; capitals alone tell only the bases. k = constrained ethyl (cEt); [5mC] = 5-methylcytosine; d = 2'-deoxy (DNA)
readout.label: Yap1 mRNA, % UTC (% UTC)
Enter your answer as a number in % UTC; do not include the unit.

Item: 958595 (k[5mC]*k[5mC]*kA*d[5mC]*dA*dT*d[5mC]*dA*dA*dG*dG*d[5mC]*dT*kA*kT*kG; antisense) [compound 958595] Test system: Yap1 mRNA Read-out: Yap1 mRNA, % UTC Value: ?
16

Item: 958734 (kA*k[5mC]*kA*d[5mC]*dA*dT*dA*dG*dA*dG*d[5mC]*dT*dA*kA*kG*kG; antisense) [compound 958734] Test system: Yap1 mRNA Read-out: Yap1 mRNA, % UTC Value: ?
15

###

Test system: Yap1 mRNA
assay.procedure: Antisense inhibition of human Yap1 in A-431 cells by cEt gapmers, single dose (Example 3, RTS36584)
Assay type: cell-based
condition.label: Table 9; A-431 cells, 5,000 cells per well, free uptake, 2,000 nM, approximately 48 hours; RTS36584; normalized to RIBOGREEN; Yap1 mRNA relative to untreated control cells
Strand notation (5' to 3'): a small letter for the sugar, then the base; units joined by * are phosphorothioate-linked, units joined directly phosphodiester-linked; [ ] holds rarer units or linkages, { } end groups; capitals alone tell only the bases. k = constrained ethyl (cEt); [5mC] = 5-methylcytosine; d = 2'-deoxy (DNA)
Recorded YAP1 (% UTC), one value per entry.
Enter your answer as a number in % UTC; do not include the unit.

Examples from the recorded data:
substance | readout.label | recorded.measurement
958501 (kT*kG*k[5mC]*d[5mC]*dT*dA*dG*dG*dT*dT*d[5mC]*d[5mC]*dG*kA*k[5mC]*kA; antisense) [Compound 958501] | YAP1 (% UTC) | 41
958766 (antisense kT*kA*kA*d[5mC]*dA*dT*dA*dT*dG*dT*d[5mC]*dT*dA*k[5mC]*kT*k[5mC]) [Compound 958766] | YAP1 (% UTC) | 23

// next entry
Fill in: YAP1 (% UTC) of 958441 (antisense kG*k[5mC]*kG*dA*d[5mC]*dG*dG*d[5mC]*dT*dG*d[5mC]*dG*dG*kG*k[5mC]*k[5mC]) [Compound 958441] is ___
72

###

Test system: Yap1 mRNA
assay.procedure: Antisense inhibition of human Yap1 in SNU-449 cells by modified oligonucleotides, single dose (Example 5, RTS36584)
Type: cell-based
condition.label: Table 51; Yap1 mRNA remaining as percent of untreated control (UT), SNU-449 cells, single dose
Strand notation (5' to 3'): a small letter for the sugar, then the base; units joined by * are phosphorothioate-linked, units joined directly phosphodiester-linked; [ ] holds rarer units or linkages, { } end groups; capitals alone tell only the bases. k = constrained ethyl (cEt); [5mC] = 5-methylcytosine; d = 2'-deoxy (DNA); m = 2'-O-methyl
Recorded YAP1 (% UT), one value per entry.
Enter your answer as a number in % UT; do not include the unit.

substance | YAP1 (% UT)
1197253 (antisense kA*kG*kT*dG*mC*dT*dT*dT*dG*dG*dA*dA*dG*kA*kT*k[5mC]) [Compound 1197253] | 58

Fill in: YAP1 (% UT) of 1197240 (antisense k[5mC]*kT*kG*dA*mG*dG*dT*dA*dT*dA*dA*d[5mC]*dT*kG*kG*kG) [Compound 1197240] is ___
58

Fill in: YAP1 (% UT) of 1197289 (kG*kG*kT*dA*mU*dA*dA*d[5mC]*dT*dG*dG*dG*d[5mC]*kA*kA*kA) [Compound 1197289] is ___
48

Fill in: YAP1 (% UT) of 1197276 (k[5mC]*kT*kA*dA*mG*dT*dA*dA*dG*dG*dT*dT*dT*k[5mC]*k[5mC]*k[5mC]; antisense) [Compound 1197276] is ___
44

Fill in: YAP1 (% UT) of 1200799 (kA*kT*kA*dT*dT*mA*dG*dA*dG*dT*dA*dT*dG*kT*kG*kG; antisense) [Compound 1200799] is ___
27

Fill in: YAP1 (% UT) of 1197305 (kA*k[5mC]*kT*d[5mC]*mU*dT*dA*dT*dA*dT*dG*dG*dT*kT*kT*kT; antisense) [Compound 1197305] is ___
30

Source: patent US11214803B2
